biological target: δ-opioid receptor (DOR), Human-ORPD1 (human, UniProt P41143 1-372); experiment: cell-based or functional assay
Sequence (P41143 whole entry, stated change not applied): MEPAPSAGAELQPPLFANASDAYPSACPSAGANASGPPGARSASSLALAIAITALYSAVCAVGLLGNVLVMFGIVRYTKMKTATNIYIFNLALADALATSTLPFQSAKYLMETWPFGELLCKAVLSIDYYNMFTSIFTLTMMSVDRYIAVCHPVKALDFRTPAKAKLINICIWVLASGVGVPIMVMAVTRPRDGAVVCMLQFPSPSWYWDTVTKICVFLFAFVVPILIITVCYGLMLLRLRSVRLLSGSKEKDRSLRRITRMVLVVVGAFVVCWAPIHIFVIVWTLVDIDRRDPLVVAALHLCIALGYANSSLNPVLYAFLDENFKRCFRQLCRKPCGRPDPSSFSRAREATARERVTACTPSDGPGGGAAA
Square brackets hold non-standard residues; d marks the D form. Ends that are not written are not given here. Dmt = Cc1cc(O)cc(C)c1C[C@H](N)C(=O)O; NMeI = CC[C@H](C)[C@H](NC)C(=O)O; β3hF = N[C@H](CC(=O)O)Cc1ccccc1; NMeA = CN[C@@H](C)C(=O)O; Sar = CNCC(=O)O
MEASUREMENT_KIND: DOR EC50

Example cases with answers are listed next.
H-[Dmt][dA]G[β3hF][Sar][dK] (not fully specified (C-terminus); printed as [DMT-((D)Ala)-Gly-(β-homoPhe)-(Sar)-(D-Lys)]2-DIG; also: homodimer: the two D-Lys joined through DIG linker (Dimer C)) [[DMT-((D)Ala)-Gly-(β-homoPhe)-(Sar)-(D-Lys)]2-DIG] ... ≤ 10 nM
H-[Dmt][dA]G[β3hF][NMeI]K (also: homodimer: two monomers joined at X5 through a lysine linker (Dimer A)) [[DMT-((D)Ala)-Gly-(β-homoPhe)-(NMe-Ile)]2-Lys] ... ≤ 10 nM
H-[Dmt][dA]G[β3hF][Sar][dK] (also: homodimer: two monomers joined at X5 through a D-lysine linker (Dimer A)) [[DMT-((D)Ala)-Gly-(β-homoPhe)-(Sar)]2-(D-Lys)] ... ≤ 10 nM
H-[Dmt][dA]G[β3hF][Sar]K (also: homodimer: two monomers joined at X5 through a lysine linker (Dimer A)) [[DMT-((D)Ala)-Gly-(β-homoPhe)-(Sar)]2-Lys] ... ≤ 1 nM

Next binder, DOR EC50 to be filled in.
Return reported DOR EC50; argument: H-[Dmt][dA]G[β3hF][NMeA]K (also: homodimer: two monomers joined at X5 through a lysine linker (Dimer A)) [[DMT-((D)Ala)-Gly-(β-homoPhe)-(NMe-Ala)]2-Lys] ≤ 1 nM
